# ASSAYED SYSTEM: Human TRPC6 (Homo sapiens)
# Construct: expressed in transfected cells
# Sequence (Q9Y210 1-931): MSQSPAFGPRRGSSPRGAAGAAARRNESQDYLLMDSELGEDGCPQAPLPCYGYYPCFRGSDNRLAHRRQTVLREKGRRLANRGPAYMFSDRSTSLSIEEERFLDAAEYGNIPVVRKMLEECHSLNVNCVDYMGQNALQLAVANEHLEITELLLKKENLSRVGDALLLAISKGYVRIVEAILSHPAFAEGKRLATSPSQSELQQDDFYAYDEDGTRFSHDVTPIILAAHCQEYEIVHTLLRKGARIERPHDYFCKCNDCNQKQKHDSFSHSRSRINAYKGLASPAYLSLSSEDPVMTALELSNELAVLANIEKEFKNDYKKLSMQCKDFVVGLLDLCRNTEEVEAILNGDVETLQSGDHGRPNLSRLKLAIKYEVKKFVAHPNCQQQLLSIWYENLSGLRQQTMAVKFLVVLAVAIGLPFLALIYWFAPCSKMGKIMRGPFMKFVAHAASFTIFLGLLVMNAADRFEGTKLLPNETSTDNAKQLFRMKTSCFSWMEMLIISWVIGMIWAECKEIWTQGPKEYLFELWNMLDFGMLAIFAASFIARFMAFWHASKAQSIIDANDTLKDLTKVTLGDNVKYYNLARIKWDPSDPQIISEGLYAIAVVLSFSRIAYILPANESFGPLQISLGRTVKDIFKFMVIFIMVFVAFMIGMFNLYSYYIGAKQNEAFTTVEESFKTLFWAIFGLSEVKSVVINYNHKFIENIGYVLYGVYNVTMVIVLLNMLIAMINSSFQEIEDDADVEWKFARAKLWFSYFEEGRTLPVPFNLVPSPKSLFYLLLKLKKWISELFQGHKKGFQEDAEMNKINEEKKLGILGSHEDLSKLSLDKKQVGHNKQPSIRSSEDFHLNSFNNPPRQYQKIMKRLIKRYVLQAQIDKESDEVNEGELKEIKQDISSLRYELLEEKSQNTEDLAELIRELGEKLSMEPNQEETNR
# ASSAY PROTOCOL: Evaluation of TRPC6 channel inhibitory activity (1), FLIPR Calcium 5 Assay Kit, OAG stimulation (Compound Nos. 1-1293)
# Type: cell-based
# ASSAY SETUP: Human TRPC6 stably-expressing cells, OAG 30 μM, FLIPR Calcium 5 Assay Kit; read-out: Inhibitory activity (pIC50 class) (converted)
ENDPOINT: IC50

Example results:
{"COMPOUND": "Cn1nc2c(c1Oc1cc(C#N)ccc1-c1ncc(CN)cn1)COCC2 [compound 679]", "ASSAYED SYSTEM": "Human TRPC6 (Homo sapiens)", "IC50": "> 1 µM"}
{"COMPOUND": "CC(C)Cn1cc(Cc2cc(F)ccc2-c2ccc(CCN)cn2)cn1 [compound 1221]", "ASSAYED SYSTEM": "Human TRPC6 (Homo sapiens)", "IC50": "0.01 to 1 µM"}
{"COMPOUND": "Cc1cc(Oc2cc(C#N)ccc2-c2ncc(CCN)cn2)cc(N2CCCC2)n1 [Compound 262]", "ASSAYED SYSTEM": "Human TRPC6 (Homo sapiens)", "IC50": "< 0.01 µM"}
{"COMPOUND": "Cn1nc(C2CC2)cc1Oc1cc(C#N)ccc1-c1cc(N)ccn1 [compound 450]", "ASSAYED SYSTEM": "Human TRPC6 (Homo sapiens)", "IC50": "> 1 µM"}

### Prompt Need IC50, item N#Cc1ccc(-c2ncc(CCN)cn2)c(C(=O)c2cnc(N3CCOCC3)o2)c1 [compound 1084]
### Response 0.01 to 1 µM

Where do these numbers come from? They come from patent US20230167073A1.
